// data source = the supplement of paper PMC10567573

B1: TSN (parent)
chain: AFVVYLETETLVTREAVTEILGIE

Variants of: B1
Assay: protein stability index of a GFP-peptide fusion (GPS, HEK-293T) (PSI 1-6); higher = more stable;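 also: lentivirally expressed fusions sorted by FACS into six bins by GFP to DsRed ratio, PSI derived from sequencing read proportions per bin multiplied by bin number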
Settings: c terminus: a fixed tail appended
Class true: protein stability index at least 2. Class false: protein stability index below 2.

A selection of reference data follows.
1. L11M : true
2. V12P : false
3. L6C : true

*Q* Identify whether the reported protein stability index of the following variant is 2 or greater: `A1N`
*A* true

*Q* Quick check: does `V3E` have protein stability index greater than or equal to 2?
*A* false

*Q* Quick check: does `I23C` have protein stability index greater than or equal to 2?
*A* false

*Q* Determine whether this variant has protein stability index no lower than 2: `L11G`
*A* true

*Q* hey, is protein stability index for this one >= 2? `E7T`
*A* true
